Consider the following binders; for each one, report its KD ratio (mut/wt).
# TEST SYSTEM: T1, DR4-IgG (human)
# T1 construct: Mature DR4 ECD (amino acids 1-218); Made in human 293 cells; also called DR4 receptor immunoadhesin
# TEST DETAILS: BIAcore SPR; KD relative to Flag.Apo2L.WT

Please review the following examples before continuing.
BINDER: Flag-Apo2L.DR5-2 (ligand) VRERGPQRVAAHITGTRGRSNTLSSPNSKNEKALGRKINSWESSRSGHSFLSNLHLRNGELVIHEKGFYYIYSQTAFKFKEEIKENTKNDKQMVQYIYKYTSYPDPILLMKSARNSCWSKDAEYGLYSIYQGGIFELKENDRIFVSVTNEHLIDMDHEASFFGAFLVG
VALUE REPORTED: 11 ratio (mut/wt)
--
BINDER: Flag-Apo2L.DR4-9 (ligand) VRERGPQRVAAHITGTRGRSNTLSSPNSKNEKALGRKINSWESSRSGHSFLSNLHLRNGELVIHEKGFYYIYSQTAFRFSEEIKERTRNDKQMVQYIYKWTDYPDPILLMKSARNSCWSKDAEYGLYSIYQGGIFELKENDRIFVSVTNEHLIDMDHEASFFGAFLVG
VALUE REPORTED: 4.3 ratio (mut/wt)

Provide KD ratio (mut/wt) for all items below, preserving their order.
1. Flag-Apo2L.DR5-1 (ligand) VRERGPQRVAAHITGTRGRSNTLSSPNSKNEKALGRKINSWESSRSGHSFLSNLHLRNGELVIHEKGFYYIYSQTAFKFKEEIKENTKNDKQMVQYIYKYTSYPDPILLMKSARNSCWSKDAEYGLYSIYQGGIFELKENDRIFVSVTNEALIDMDHEASFFGAFLVG
2. Flag-Apo2L.DR4-8 (ligand) VRERGPQRVAAHITGTRGRSNTLSSPNSKNEKALGRKINSWESSRSGHSFLSNLHLRNGELVIHEKGFYYIYSQTAFRFSEEIKEVTRNDKQMVQYIYKWTDYPDPILLMKSARNSCWSKDAEYGLYSIYQGGIFELKENDRIFVSVTNEHLIDMDHEASFFGAFLVG

Solution:
1: 11 ratio (mut/wt); 2: 0.2 ratio (mut/wt)
